Target: pooled human IgG (human IgG1,2,3 and 4)
Quantity name: Enzyme activity endpoint: IgG (ng/µL)
Give bare numbers, in ng/µL.

PRT-669 (protein) MQITSVWTKGVTPPTPEQFTNNNEDVFHAPYLANQGWYDITKTFNGKDNLLCGAATAGNMLHWWFDQNKEQIEAYLKKHPEKQKIIFNNQEMFDLKKAIDTKDSQTNSALFNYFRDKAFPNLSARQLGVMPDLVLDMFINGYYLNVGKTQSTDVNRPYQTKDKRGGIFDAVFTRGDQTKLLTARHDLKNKGLNEISDLIKQELTEGKALALSHTYANVRINHVINLWGADFNAEGNLIAIYVTDSDSNASIGMKKYFVGVNSAGKVAISAKKIEGDNIGAQVLGLFTLSSGQDIWQKLSLEHHHHHH ... 0
PRT-676 (protein) MQITSVWTKGVTPPTMDQFTNYNYDVFHAPYKPGQGWYDITKTFDGKDNLLCGAATAGNMLHWWFDQNKEEIENYLKKHPEKQKIIFNNQKMFDLRKAINTKDSQTNSALFNYFKDKAFPNLSARQKGVMPDLVLDMFINGYYLNLGKTQSTDVNREYQTKDSRGGIFDDVFGRGDQTKLLTARHDLYNGGLNDISQLIKQELSSGKALGLSHTYANVRYSHVINLWGADFDEEGNLEAIYVTDSDDDASIGMKKYYVGKNASGKVAISAKKIEGENIGAQVLGLFTLSSGKEIWQKLSLEHHHHHH ... 0
PRT-613 (protein) MQITTVWTKGVTPLTPEQFRYNNEDVIHAPYLAHQGWYDITKAFDGKDNLLCGAATAGNMLHWWFDQNKTEIEAYLSKHPEKQKIIFNNQELFDLKAAISTKDSQTNSQLFNYFRDKAFPNLSARQLGVMPDLVLDMFINGYYLNVFKTQSTDVNRPYQDKDKRGGIFDDVFTRGDQTTLLTARHDLKNGGLNDISTIIKQELTNGRALALSHTYANVSISHVINLWGADFNAEGNLEAIYVTDSDANARIGMKKYGVGINAHGHVAISAKKIEGENIGAQVLGLFTLSSGKDIWQKLSLEHHHHHH ... 15

Shift focus to the following entry.
For the protein PRT-645 (protein) MQITSVWTKGVTPLTPEQFRYNNEDVIHAPYLAHQGWYDITKAFDGKDNLLCGAATAGNMLHWWFDQNKTEIEAYLSKHPEKQKIIFNNQELFDLKAAIDTKDSQTNSQLFNYFRDKAFPNLSARQLGVMPDLVLDMFINGYYLNVFKTQSTDVNRPYQDKDKRGGIFDAVFTRGDQTTLLTARHDLKNKGLNDISTIIKQELTEGRALALSHTYANVSISHVINLWGADFNAEGNLEAIYVTDSDANASIGMKKYYVGYNKSGRVAISAYKITDENIGAQVLGLFTLSSGKDIWQKLSLEHHHHHH , give its measured Enzyme activity endpoint: IgG value.
0
